// provenance: ChEMBL document CHEMBL1130164

target: Protein kinase C gamma type (Homo sapiens, UniProt P05129)
assay.remarks: Inhibitory concentration against recombinant human Protein kinase C gamma isozyme
experimental.readout: IC50 (nM)
The figure you give is taken to be in nM; do not add the unit.

The following compounds have reported results that may help.
compound	IC50 / nM
NC[C@@H]1C[C@@H](NC(=O)c2ccc(O)cc2)[C@H](OC(=O)c2cc(O)c(C(=O)c3c(O)cccc3C(=O)O)c(O)c2)C1	10
O=C(N[C@@H]1C[C@@H](CO)C[C@H]1OC(=O)c1cc(O)c(C(=O)c2c(O)cccc2C(=O)O)c(O)c1)c1ccc(O)cc1	50
O=C(N[C@@H]1CC(O)C[C@H]1OC(=O)c1cc(O)c(C(=O)c2c(O)cccc2C(=O)O)c(O)c1)c1ccc(O)cc1 (some centres not stated)	20
O=C(N[C@@H]1C[C@H](CO)C[C@H]1OC(=O)c1cc(O)c(C(=O)c2c(O)cccc2C(=O)O)c(O)c1)c1ccc(O)cc1	5
NC[C@H]1C[C@@H](NC(=O)c2ccc(O)cc2)[C@H](OC(=O)c2cc(O)c(C(=O)c3c(O)cccc3C(=O)O)c(O)c2)C1	5
O=C(N[C@@H]1COCCC[C@H]1OC(=O)c1cc(O)c(C(=O)c2c(O)cccc2C(=O)O)c(O)c1)c1ccc(O)cc1	1000

Fill in: IC50 of `CNC(=O)N1C[C@@H](NC(=O)c2ccc(O)cc2)[C@H](OC(=O)c2cc(O)c(C(=O)c3c(O)cccc3C(=O)O)c(O)c2)C1` is ___
410
